system-name: recombinant human OX40 fused to a His-tag (Acro Biosystems, cat. no. OX0-H5224) (human) (UniProt P43489)
Sequence (P43489 29-214 limits assumed): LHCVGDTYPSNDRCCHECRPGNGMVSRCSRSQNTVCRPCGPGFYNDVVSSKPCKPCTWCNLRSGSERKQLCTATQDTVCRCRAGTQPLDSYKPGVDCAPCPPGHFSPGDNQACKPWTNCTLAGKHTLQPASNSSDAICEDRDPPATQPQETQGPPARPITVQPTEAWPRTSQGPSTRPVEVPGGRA
assay-summary: BLI cross-block; first Ab (competitor): IgG1-CD134-h3C8

binder	association response
IgG1-CD134-MEDI0562 (antibody, INN chains, looked up, V domains shown, IgG1) VH: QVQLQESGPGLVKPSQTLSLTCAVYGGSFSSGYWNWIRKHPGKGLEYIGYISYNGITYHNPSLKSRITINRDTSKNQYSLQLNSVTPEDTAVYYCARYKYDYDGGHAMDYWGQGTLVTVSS VL: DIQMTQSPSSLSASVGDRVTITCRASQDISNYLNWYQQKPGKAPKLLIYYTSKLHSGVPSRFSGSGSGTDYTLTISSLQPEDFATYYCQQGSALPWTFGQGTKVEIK	0.54 nm
